Molecular target: SLPI (secretory leucoprotease inhibitor) (UniProt P03973 26-132)
Sequence (P03973 26-132): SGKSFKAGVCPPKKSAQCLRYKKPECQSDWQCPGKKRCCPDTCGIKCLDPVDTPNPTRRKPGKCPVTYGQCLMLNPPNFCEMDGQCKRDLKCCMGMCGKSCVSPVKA
Experiment: EMSA
READOUT KIND: binding result

BINDER	RESULT
CREB consensus (dsDNA) DNA 1: AGAGATTGCCTGACGTCAGACAGCTAG DNA 2: CTAGCTGTCTGACGTCAGGCAATCTCT	no binding
GATA-1 consensus (dsDNA) DNA 1: AATTGGACCGTATCTCCC DNA 2: GGGAGATACGGTCCAATT	no binding
AP-1 consensus (dsDNA) DNA 1: CGCTTGATGAGTCAGCCGGAA DNA 2: TTCCGGCTGACTCATCAAGCG	binds
Sp-1 consensus (dsDNA) DNA 1: ATTCGATCGGGCGGGGCGAG DNA 2: CTCGCCCCGCCCGATCGAAT	no binding
